Values from PubChem BioAssay (Tox21)

# TESTED_ON: Estrogen receptor (Homo sapiens)
# ASSAY_PROCEDURE: qHTS assay to identify small molecule agonists of the estrogen receptor alpha (ER-alpha) signaling pathway (AID 743075);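 also: HEK293 GripTite cells with ER-alpha and UAS-driven beta-lactamase reporter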
# CONDITION_PARAMETERS: HEK293 ER-alpha-UAS-bla, beta-lactamase FRET ratio, 18 h; series mostly up to 70.1 µM
Results filed as inconclusive are left out. Calls of active or inactive are those of the source. Calls follow the shape of the full dose curve.
PARAMETER: outcome

Worked examples, 10 compounds total:
CC1=C(/C=C/C(C)=C/C=C/C(C)=C/C(=O)Nc2ccc(O)cc2)C(C)(C)CCC1	inactive
COc1ccc2sc(C(=O)Nc3nnn[nH]3)c(OC(C)C)c2c1	inactive
C1CC(COCC2CO2)CCC1COCC1CO1 (stereo not drawn)	inactive
CCCCOC(=O)C(C)CC (stereo not drawn)	inactive
N#CSCSc1nc2ccccc2s1	inactive
O=C(O)Cc1ccc(OCCNC[C@H](O)c2ccccc2)cc1	inactive
CCCCCCCCCCCCN(CCO)CCO	inactive
C(=C/c1ccccc1)/c1ccccc1	inactive
C[C@@H]1CC[C@H]2C(C)(C)[C@H]3C[C@@]12CC[C@@]3(C)O	inactive
C[Si](C)(C)Cl	inactive

Sure, the documented outcome for CCN=c1cc2oc3cc(NCC)c(C)cc3c(-c3ccccc3C(=O)OCC)c-2cc1C is inactive

Memo: CN1CCN(C2Cc3ccccc3Sc3ccc(Cl)cc32)CC1 (stereo not drawn) , reported outcome: inactive

The recorded outcome for entry NC(=O)c1ccccc1N equals inactive
